Cited source: ChEMBL document CHEMBL1681704

# Assay Comment: Tmax in cynomolgus monkey at 6 mg/kg, po
# Assay type: ADME, organism-based, Macaca fascicularis
# Set-up: dose 6 mg/kg, route oral
# Condition Summary: in vivo

Molecule	Tmax, h
O=C(NOCCO)c1cc(CN2OCCCC2=O)c(F)c(F)c1Nc1ccc(I)cc1F [RO-4987655]	1.5
O=C(NOC[C@H](O)CO)c1ccc(F)c(F)c1Nc1ccc(I)cc1F [MIRDAMETINIB]	1.1

###

# Assay Comment: Half life in cynomolgus monkey at 1.5 mg/kg, po
# Format: ADME, organism-based, Macaca fascicularis
# Set-up: dose 1.5 mg/kg, route oral
# Condition Summary: in vivo

Mol Smiles	half-life (h)
O=C(NOCCO)c1cc(CN2OCCCC2=O)c(F)c(F)c1Nc1ccc(I)cc1F	6.6

###

# Assay Comment: Cmax in cynomolgus monkey at 3 mg/kg, po
# Format: ADME, organism-based, Macaca fascicularis
# Design: dose 3 mg/kg, route oral
# Condition Summary: in vivo
Measured Parameter: Cmax (µg/mL)

Compound	Measured Parameter	Unit Descriptor	Value Measured
O=C(NOCCO)c1cc(CN2OCCCC2=O)c(F)c(F)c1Nc1ccc(I)cc1F [RO-4987655]	Cmax	µg/mL	1

###

# Assay Comment: Half life in human liver microsomes at 1 uM
# Format: ADME, Microsome

Molecule	Relation Operator	half-life at 1 µM, h
O=C(NOCCO)c1cc(CN2OCCCC2=O)c(F)c(F)c1Nc1ccc(I)cc1F [RO-4987655]	=	1.93
O=C(NOCCO)c1cc(/C=N\OCCO)c(F)c(F)c1Nc1ccc(I)cc1F	>	6
O=C(NOCCO)c1cc(CNOCCO)c(F)c(F)c1Nc1ccc(I)cc1F	>	6
O=C(NOCCO)c1cc(/C=N/OCCO)c(F)c(F)c1Nc1ccc(I)cc1F	=	1.08
O=C(NOCCO)c1cc(CN2CCCC2=O)c(F)c(F)c1Nc1ccc(I)cc1F	=	3.08
CS(=O)(=O)CCO/N=C/c1cc(C(=O)NOCCO)c(Nc2ccc(I)cc2F)c(F)c1F	=	1.5
O=C(NOCCO)c1cc(CN2OCCC2=O)c(F)c(F)c1Nc1ccc(I)cc1F	>	6
O=C(NOCCO)c1cc(CN2OCCOC2=O)c(F)c(F)c1Nc1ccc(I)cc1F	=	0.633
C#Cc1ccc(Nc2c(C(=O)NOCCO)cc(/C=N/OCCO)c(F)c2F)c(F)c1	=	1.33
CC(C)(O)CO/N=C/c1cc(C(=O)NOCCO)c(Nc2ccc(I)cc2F)c(F)c1F	>	6

###

# Assay Comment: Tmax in cynomolgus monkey at 3 mg/kg, po
# Format: ADME, organism-based, Macaca fascicularis
# Design: dose 3 mg/kg, route oral
# Condition Summary: in vivo

Compound	Unit Descriptor	Tmax
O=C(NOCCO)c1cc(CN2OCCCC2=O)c(F)c(F)c1Nc1ccc(I)cc1F [RO-4987655]	h	2.5

###

# Assay Comment: MRT (infinity) in cynomolgus monkey at 1.5 mg/kg, po
# Format: ADME, organism-based, Macaca fascicularis
# Design: dose 1.5 mg/kg, route oral
# Condition Summary: in vivo
Measured Parameter: MRT inf (h)

Mol Smiles	Value Measured
O=C(NOCCO)c1cc(CN2OCCCC2=O)c(F)c(F)c1Nc1ccc(I)cc1F	8.4

###

# Assay Comment: Half life in mouse liver microsomes at 1 uM
# Type: ADME, Microsome
Measured Parameter: half-life at 1 µM

Mol Smiles	Measured Parameter	Value Measured
O=C(NOCCO)c1cc(CN2OCCCC2=O)c(F)c(F)c1Nc1ccc(I)cc1F	half-life at 1 µM	> 6 h
CC(=O)NCCO/N=C/c1cc(C(=O)NOCCO)c(Nc2ccc(I)cc2F)c(F)c1F	half-life at 1 µM	> 6 h
O=C(NOCCO)c1cc(CN2OCCOC2=O)c(F)c(F)c1Nc1ccc(I)cc1F	half-life at 1 µM	2.1 h
CC(C)(O)CO/N=C/c1cc(C(=O)NOCCO)c(Nc2ccc(I)cc2F)c(F)c1F	half-life at 1 µM	> 6 h
O=C(NOCCO)c1cc(/C=N/OCCO)c(F)c(F)c1Nc1ccc(I)cc1F	half-life at 1 µM	3.95 h
O=C(NOCCO)c1cc(COCCO)c(F)c(F)c1Nc1ccc(I)cc1F	half-life at 1 µM	> 6 h
CS(=O)(=O)CCO/N=C/c1cc(C(=O)NOCCO)c(Nc2ccc(I)cc2F)c(F)c1F	half-life at 1 µM	> 6 h
O=C(NOCCO)c1cc(CN2CCOC2=O)c(F)c(F)c1Nc1ccc(I)cc1F	half-life at 1 µM	> 6 h
O=C(NOCCO)c1cc(/C=N\OCCO)c(F)c(F)c1Nc1ccc(I)cc1F	half-life at 1 µM	> 6 h
O=C(NOCCO)c1cc(CN2CCCC2=O)c(F)c(F)c1Nc1ccc(I)cc1F	half-life at 1 µM	2.07 h
